Consider the following compounds and their measured inhibition readings.
# PROTOCOL: growth suppression of yeast trafficking mutant, preliminary HTS, modulators of trafficking downstream of Golgi apparatus project, 1536-format plate, OD 615 nm (AID 637); also: test concentration not given here
# RUN CONDITIONS: yeast transport mutant growth, absorbance 615 nm, 18 h; active compounds read high
MEASURED QUANTITY: inhibition (%)

INSERT INTO assay_data (compound, unit_descriptor, assay_value) VALUES
  ('COc1ccc(S(=O)(=O)Nc2ccc3c(c2)OCO3)cc1Cl', '%', 12.1),
  ('CC(C)NCC(O)COc1ccc(CCOCC2CC2)cc1 (centres undefined)', '%', -5),
  ('CC(=O)NCCC(=O)Nc1ccc(C)c(F)c1', '%', 3.09),
  ('Cc1ccnc(NC(=O)Nc2ccc(F)cc2)c1', '%', -8.41);
